- Test target: T1, human TL1A extracellular domain with N-terminal HIS and FLAG tag (human, UniProt O95150 72-251)
- T1 construct: the whole entry is named
- T1 sequence: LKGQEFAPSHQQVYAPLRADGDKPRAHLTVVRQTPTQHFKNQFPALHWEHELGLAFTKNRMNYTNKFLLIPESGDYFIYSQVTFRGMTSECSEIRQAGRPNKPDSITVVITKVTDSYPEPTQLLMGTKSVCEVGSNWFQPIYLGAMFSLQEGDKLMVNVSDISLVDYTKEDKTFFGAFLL
- Assay notes: SPR Run 6, purified Ab captured on Protein A, TL1A 5 ug/mL, timepoint 44
Provide the recorded TL1A Binding Level (Early) for the entries that follow.
Numbers only, in RU.

The examples below pair each entry with its known result.
Binder	TL1A Binding Level (Early) / RU
320-447 (antibody, human IgG1, name in Kabat numbering, V domains shown, human IgG1, lambda) VH: QVQLVQSGAEVKKPGASVKVSCKASGYTFTSYSINWVRQAPGQGLEWMGWLNPNSGNTGYAQKFQGRVTMTADRSTSTAYMELSSLRSEDTAVYYCAREVPETAAFEYWGQGTLVTVSS VL: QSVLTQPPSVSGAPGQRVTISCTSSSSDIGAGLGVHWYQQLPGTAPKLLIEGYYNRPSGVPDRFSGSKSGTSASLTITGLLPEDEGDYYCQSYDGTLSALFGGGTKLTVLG	37
320-432 (antibody, human IgG1, name in Kabat numbering, V domains shown, human IgG1, lambda) VH: QVQLVQSGAEVKKPGASVKVSCKASGYTFTQYDINWVRQAPGQGLEWMGWLNPNSGNTGYAQKFQGRVTMTADRSTSTAYMELSSLRSEDTAVYYCAREVPETAAFEYWGQGTLVTVSS VL: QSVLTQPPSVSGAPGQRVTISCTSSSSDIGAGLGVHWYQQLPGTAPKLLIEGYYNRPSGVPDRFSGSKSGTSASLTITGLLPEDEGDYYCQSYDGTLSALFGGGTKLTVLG	116

Please find the next binder below.
Prompt: # return recorded TL1A Binding Level (Early) for entry 320-443 (antibody, human IgG1, name in Kabat numbering, V domains shown, human IgG1, lambda) VH: QVQLVQSGAEVKKPGASVKVSCKASGYTFTSKDINWVRQAPGQGLEWMGWLNPNSGNTGYAQKFQGRVTMTADRSTSTAYMELSSLRSEDTAVYYCAREVPETAAFEYWGQGTLVTVSS VL: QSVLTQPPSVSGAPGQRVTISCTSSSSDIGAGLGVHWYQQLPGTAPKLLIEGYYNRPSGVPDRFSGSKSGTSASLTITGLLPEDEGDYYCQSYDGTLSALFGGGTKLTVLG
Completion: 114
